- Test system: SK-MEL-5 melanoma
- ASSAY_PROCEDURE: NCI tumour cell line growth inhibition, 48 h; in the data active = GI50 below about 0.43 µM; inactive = the rest
# output must be one of active, inactive

O=C1C=CC(=O)N1C1CCCCCCCCCCC1 | inactive

Query: So what was the verdict on "COc1cc2ncn(-c3cc(O[C@H](C)c4ccccc4Cl)c(C(N)=O)s3)c2cc1OC" in this test?
Response: active

Query: Also, "CCCS(=O)(=O)Nc1ccc(F)c(C(=O)c2c[nH]c3ncc(Cl)cc23)c1F" please.
Response: inactive

Query: Also, "CN1CCc2c(c3ccccc3c3ccccc23)C1" please.
Response: inactive

Query: Also, Nc1nc2c(c3ncccc13)C(c1cccc(Br)c1)Cc1ncccc1-2 (stereo not drawn) please.
Response: inactive
